Listing of recorded growth by entry.
# Test system: NCI-H23 lung
# assayDetails: NCI-60 one-dose screen, 48 h (100 = growth as untreated, 0 = no growth, -100 = all killed)
# conditionsUsed: 10 µM unless noted
About 83,000 compounds went through this panel and 20% of them were active in at least one assay; those are over-represented in the sample as a whole.
# number only, unit % dropped from output

Examples with answers:
1) CN1CCN(C(=O)[C@@]2(C)CC[C@]3(C)CC[C@]4(C)C(=CC[C@@H]5[C@@]6(C)CC[C@H](OC(=O)c7cccnc7)C(C)(C)[C@@H]6CC[C@]54C)[C@@H]3C2)CC1: 75.3
2) O=C(CCCC(=O)Nc1ccc(-n2nnc3cc(Cl)c(Cl)cc32)cc1)Nc1ccc(-n2nnc3cc(Cl)c(Cl)cc32)cc1: 40.2
3) COc1ccc(C2=NN(c3ccc(S(N)(=O)=O)cc3)C(c3ccc(Cl)cc3)C2)c(O)c1 (configuration not stated): 63.7
4) COc1ccc2c(c1)/C(=C1\S/C(=N/c3nnc(C)s3)NC1=O)C(=O)N2Cc1ccc(Cl)cc1: 34.5

-- ask For the molecule CN(C)CCCn1c2c(c3cc(-c4ccco4)ccc3c1=O)C(=O)c1ccccc1-2 , report growth.
-- reply 71.8

-- ask For the molecule C=C1C(=O)O[C@H]2[C@H]1CC/C(COC(=O)CCCCC(=O)OC/C1=C/CC[C@@]3(C)O[C@H]3[C@H]3OC(=O)C(=C)[C@@H]3CC1)=C\CC[C@@]1(C)O[C@@H]21 , report growth.
-- reply 65.2

-- ask For the molecule COC(=O)[C@]1(C)CCC[C@]2(C)[C@H]3C[C@H]4C(C(C)C)=C[C@]3(CC[C@H]21)[C@@H]1C(=O)N(CCC#N)C(=O)[C@@H]14 , report growth.
-- reply 93.7

---

# System: TK-10 renal
# assayDetails: NCI-60 one-dose screen, 48 h
# conditionsUsed: 10 µM unless noted
This is part of a sample that, as a whole, favours compounds with a hit. Of some 83,000 tested, about 20% had one in any assay. Calls of active or inactive are those of the source. The calls were made as follows: active = growth percent below 10; inactive = the rest.
Hi! Could you answer with just one of these? 1.0 (active), 0.0 (inactive)

Solved cases below.
1) CCOC(=O)c1c(C)nc2c(c1N)CC(=O)N2CCc1ccccc1: 1.0
2) Cc1[nH]c2ncnc(Oc3ccc(NC(=O)Nc4ccc(Cl)c(C(F)(F)F)c4)cc3)c2c1C: 0.0
3) CC(=O)c1cnc(-c2ccccc2)nc1CBr: 0.0

-- ask Would you mind telling me which call this test gave Nc1c(C(=O)Nc2ccccn2)sc2nc3c(cc12)C(=O)CCC3 ?
-- reply 0.0

-- ask Would you mind telling me which call this test gave COc1ccc(-c2nnc(N3CCN(C(=O)CN4CCN(c5ccc(OC)cc5)CC4)CC3)nc2-c2ccc(OC)cc2)cc1 ?
-- reply 0.0

-- ask Would you mind telling me which call this test gave O=C(CCc1nnco1)c1nc2ccc([N+](=O)[O-])cc2[nH]1 ?
-- reply 0.0

-- ask Would you mind telling me which call this test gave Cc1cccc(C)c1NC(=O)CN(CC(C)C)CC(O)COc1ccccc1 (stereo unspecified) ?
-- reply 0.0

-- ask Would you mind telling me which call this test gave O=C(/C(=C/c1ccc([N+](=O)[O-])cc1)SCc1ccc(Cl)cc1)c1ccc(F)cc1 ?
-- reply 0.0

-- ask Would you mind telling me which call this test gave C=C(C)[C@@H]1CCC=C2CC[C@]3(C)[C@H](CC[C@@H]4[C@@]5(C)CCCNC(C)(C)[C@@H]5CC[C@]43C)[C@H]21 ?
-- reply 0.0

-- ask Would you mind telling me which call this test gave CNc1cccc2c1C(=O)c1cccc(N)c1C2=O ?
-- reply 0.0

-- ask Would you mind telling me which call this test gave CCOC(=O)c1ccc(Nc2ncnc3ccc(NC(=O)c4ccccc4)cc23)cc1 ?
-- reply 0.0

-- ask Would you mind telling me which call this test gave Cc1ccc(C(=O)O)o1 ?
-- reply 0.0

-- ask Would you mind telling me which call this test gave COc1ccc(C(=S)c2cc(OC)c(OC)c(OC)c2)cc1OC(=O)CCl ?
-- reply 0.0

-- ask Would you mind telling me which call this test gave COc1cc(NCC(=O)Nc2cc(Nc3ccc(C)cc3)ncn2)c(Cl)c(OC)c1Cl ?
-- reply 0.0

-- ask Would you mind telling me which call this test gave CCCCn1c2cc(OCc3cn(-c4ccc(Cl)cc4)nn3)ccc2c2ccnc(C)c21 ?
-- reply 0.0

-- ask Would you mind telling me which call this test gave C#Cc1ccccc1NC(=O)c1sc2nc3c(cc2c1N)CCCCC3 ?
-- reply 0.0

-- ask Would you mind telling me which call this test gave O=C1c2ccccc2C(=O)c2c1oc1c2c(=O)[nH]c2ccccc21 ?
-- reply 0.0

-- ask Would you mind telling me which call this test gave C#C[C@@]1(O)[C@@H](CO)O[C@@H](n2cc(F)c3c(N)ncnc32)[C@@H]1O ?
-- reply 1.0

-- ask Would you mind telling me which call this test gave Cc1ccccc1NC(=O)c1sc2nc(C)c(C(C)O)cc2c1N (stereo unspecified) ?
-- reply 0.0

-- ask Would you mind telling me which call this test gave CC(=O)Oc1c2c(nc3c1c1ccccc1n3Cc1ccccc1)-c1ccccc1C2 ?
-- reply 0.0

-- ask Would you mind telling me which call this test gave COc1ccc(Sc2[nH]c(C(C)=O)c3ccccc23)cc1 ?
-- reply 0.0

---

# Test system: M14 melanoma
# assayDetails: NCI-60 one-dose screen, 48 h (100 = growth as untreated, 0 = no growth, -100 = all killed)
# conditionsUsed: 10 µM unless noted
About 83,000 compounds went through this panel and 20% of them were active in at least one assay; those are over-represented in the sample as a whole.
Listing of recorded growth by entry.
# number only, unit % dropped from output

Examples with answers:
1. C=C(C)[C@@H]1CC[C@]2(C(=O)OCCOCCOCC[P+](c3ccccc3)(c3ccccc3)c3ccccc3)CC[C@]3(C)[C@H](CC[C@@H]4[C@@]5(C)CC[C@H](OC(C)=O)C(C)(C)[C@@H]5CC[C@]43C)[C@@H]12: -83.1
2. CC(=O)O[C@@H]1C[C@]2(C)[C@H]3[C@H](O)C[C@@H]4C5=CC(C)(C)CC[C@]5(C)CC[C@@]4(C)[C@]3(C)CC[C@H]2C(C)(C)[C@H]1O: 99.3

Next, consider the following compound.
-- ask Give growth for this entry on M14 melanoma: COC(=O)c1nc(-c2ccccc2)oc1S(=O)(=O)n1nc(C)cc1N
-- reply 67.1

---

# Tested on: HCC-2998 colon
# assayDetails: NCI-60 one-dose screen, 48 h
# conditionsUsed: 10 µM unless noted
About 83,000 compounds went through this panel and 20% of them were active in at least one assay; those are over-represented in the sample as a whole. The source made the active and inactive calls. The calls were made as follows: active = growth percent below 10; inactive = the rest.
Hi! Could you answer with just one of these? active, inactive

Solved cases below.
1. CC(=O)c1c(OCC#N)ccc2c(C)cc(=O)oc12: inactive
2. COc1ccc(C(=O)c2cc(OC)c(C)c(OC)c2)cc1OC(=O)CCl: inactive
3. CCCCCOC(=O)c1ccccc1O: inactive
4. COc1ccc(/C=C/C(=O)Nc2ncnc3nc[nH]c23)cc1: inactive
5. CC(=O)c1cc2c(N)c(C(=O)Nc3ccccn3)sc2nc1C: inactive

Consider the additional compound presented here.
-- ask Would you mind telling me which call this test gave CCc1c(C(=O)N[C@@H](C(=O)OCc2ccccc2)C(C)O)[nH]c2ccc(Cl)cc12 (stereo not given in full) ?
-- reply inactive

---

# Test system: A498 renal
# assayDetails: NCI-60 one-dose screen, 48 h (100 = growth as untreated, 0 = no growth, -100 = all killed)
# conditionsUsed: 10 µM unless noted
Compounds without any hit were thinned out: in the full panel of roughly 83,000, 20% have a hit.
// criterion not met strictly below 50% in growth; criterion met otherwise

Solved cases below.
1) COc1cc(/C=C/C(=O)/C=C/c2cc3ccc(Cl)cc3n(Cc3ccccc3)c2=O)ccc1O: criterion met
2) Cc1c(O)c(=O)ccn1-c1nc2ccccc2s1: criterion met
3) O=C(Nc1nc(-c2ccccc2Cl)cs1)c1cc(-c2ccc(Br)cc2)nc2ccccc12: criterion not met
4) C#C[C@@]1(O)[C@@H](CO)O[C@@H](n2cc(Cl)c3c(N)ncnc32)[C@@H]1O: criterion not met
5) COC1=CC=CC2(OC)C3(O)CCCc4cccc(c43)N3C(=O)COC132 (stereo not drawn): criterion met
6) COc1ccc(C2N(c3cc(OC)c(OC)c(OC)c3)C(=O)C2(F)F)cc1F (stereo not drawn): criterion met

-- ask Kindly determine if growth recorded for Cc1nnc(/N=C2\NC(=O)/C(=C/c3ccc(N(C)C)cc3)S2)s1 is above or exactly 50%.
-- reply criterion met

-- ask Kindly determine if growth recorded for C=C(C)[C@@H]1CC[C@]2(C(=O)O)CC[C@]3(C)[C@H](CC[C@@H]4[C@@]5(C)C[C@@H](CC#Cc6ccccc6C)C(=O)C(C)(C)[C@@H]5CC[C@]43C)[C@@H]12 is above or exactly 50%.
-- reply criterion not met

-- ask Kindly determine if growth recorded for CC(=O)c1ccc(NC(=O)CSc2nnc(-c3cc(-c4ccc(Cl)cc4)nc4ccccc34)o2)cc1 is above or exactly 50%.
-- reply criterion met

-- ask Kindly determine if growth recorded for CCO/C=N/S(=O)(=O)c1cc2c(cc1Cl)NC=NS2(=O)=O is above or exactly 50%.
-- reply criterion met

-- ask Kindly determine if growth recorded for C/C(=N/Nc1nc2ccccc2n1C)c1ccccn1 is above or exactly 50%.
-- reply criterion not met

-- ask Kindly determine if growth recorded for CCOC(=O)c1c(C)nc2c(c1N)/C(=C/c1ccccn1)C(=O)N2Cc1ccccc1 is above or exactly 50%.
-- reply criterion met

-- ask Kindly determine if growth recorded for CS(=O)(=O)O[C@@H]1C(=O)N(c2cc3c4ccccc4ccc3c3ccccc23)[C@H]1c1ccc(F)cn1 is above or exactly 50%.
-- reply criterion not met

-- ask Kindly determine if growth recorded for CC[C@]12C=CCN3CC[C@@]4(c5cc(NC(=O)CCC(=O)O[C@H]6CC[C@H]7[C@@H]8CC[C@H]9CC(=O)CC[C@]9(C)[C@H]8CC[C@]67C)c(OC)cc5N(C)[C@H]4[C@@](O)(C(=O)OC)[C@@H]1OC(C)=O)[C@@H]32 is above or exactly 50%.
-- reply criterion met

-- ask Kindly determine if growth recorded for C=C1C(=O)O[C@H]2[C@H]1CC/C(COC(=O)c1cccnc1)=C\CC[C@@]1(C)O[C@@H]21 is above or exactly 50%.
-- reply criterion met

-- ask Kindly determine if growth recorded for CCSc1ccc(C2C(Br)C(=O)N2c2cc(OC)c(OC)c(OC)c2)cc1 (stereo not drawn) is above or exactly 50%.
-- reply criterion not met

-- ask Kindly determine if growth recorded for OCCNc1nc(NCCO)nc(Nc2ccc(C3=NN(c4cc(Cl)cc(Cl)c4)C(c4ccccc4)C3)cc2)n1 (stereo not drawn) is above or exactly 50%.
-- reply criterion met
